Every entry's value here was drawn from ChEMBL document CHEMBL4190264.

TARGET_ENTITY: Albumin (Bos taurus)
Sequence (P02769 whole entry): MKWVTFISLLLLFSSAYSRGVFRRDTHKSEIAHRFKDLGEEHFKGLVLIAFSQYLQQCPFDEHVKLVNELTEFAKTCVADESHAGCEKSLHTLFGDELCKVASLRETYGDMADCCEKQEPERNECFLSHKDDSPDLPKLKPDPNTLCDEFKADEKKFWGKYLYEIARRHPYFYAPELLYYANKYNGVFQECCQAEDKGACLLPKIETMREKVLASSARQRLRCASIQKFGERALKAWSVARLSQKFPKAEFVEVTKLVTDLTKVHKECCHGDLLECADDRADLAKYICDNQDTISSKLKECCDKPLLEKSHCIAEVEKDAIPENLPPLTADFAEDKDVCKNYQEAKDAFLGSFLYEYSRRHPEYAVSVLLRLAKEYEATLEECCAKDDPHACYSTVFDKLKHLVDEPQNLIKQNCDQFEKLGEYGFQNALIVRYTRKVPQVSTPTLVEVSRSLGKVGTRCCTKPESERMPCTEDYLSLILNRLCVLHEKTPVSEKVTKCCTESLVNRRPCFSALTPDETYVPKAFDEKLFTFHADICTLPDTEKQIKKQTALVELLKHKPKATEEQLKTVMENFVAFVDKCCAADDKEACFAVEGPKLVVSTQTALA
EXPERIMENT: Antiglycation activity in bovine serum albumin assessed as inhibition of advanced glycated end product formation in presence of D-glucose by spectrofluorimetric analysis
EXPERIMENTAL_SETUP: cattle
EXPERIMENTAL_ENDPOINT: inhibition (INH) (%)

smiles_string=CC(=O)c1c(O)cc(O)c(C(C)=O)c1O result=83
smiles_string=CCCCCC/C=C\CCCCCCCCCC(=O)O result=66
smiles_string=CCCCCCCC/C=C\CCCCCCC(=O)O result=66
smiles_string=CCCCCCCCCCCCCCCC(=O)O result=66
